Can you tell me pIC50 for the items I'm about to list?
Biological target: E. coli SPase (Escherichia coli)
Sequence (P00803 whole entry): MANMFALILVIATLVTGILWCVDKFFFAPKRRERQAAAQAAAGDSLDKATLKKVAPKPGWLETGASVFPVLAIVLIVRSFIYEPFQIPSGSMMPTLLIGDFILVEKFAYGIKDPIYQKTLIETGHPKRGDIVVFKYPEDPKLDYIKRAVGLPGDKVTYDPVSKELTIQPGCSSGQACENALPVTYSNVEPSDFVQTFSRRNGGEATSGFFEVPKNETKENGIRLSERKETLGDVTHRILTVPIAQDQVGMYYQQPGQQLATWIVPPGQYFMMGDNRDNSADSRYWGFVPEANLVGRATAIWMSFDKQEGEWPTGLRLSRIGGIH
Test: Biochemical SPase activity assay (fluorogenic peptide substrate), E. coli enzyme
Square brackets hold non-standard residues; d marks the D form. Peptide text beside a SMILES is read from it. * marks the point of attachment. boroAla((+)-pinanediol) = C[C@H](N*)B1O[C@@H]2C[C@@H]3C[C@@H](C3(C)C)[C@]2(C)O1; Biphenylcarbonyl(4'-Bu) = CCCCc1ccc(-c2ccc(C(=O)*)cc2)cc1; X1 = C[C@H](N*)B1OC2C[C@@H]3C[C@@H](C3(C)C)[C@]2(C)O1; Benzoyl(4-(4-Cl-Ph)) = O=C(c1ccc(-c2ccc(Cl)cc2)cc1)*; Dopa = N[C@@H](Cc1ccc(O)c(O)c1)C(=O)O; boroAla = C[C@H](N*)B(O)O; Dab = NCC[C@H](N)C(=O)O; Dap = NC[C@H](N)C(=O)O; βAla = NCCC(=O)O
Numbers only, as −log10 of the molar value.

Below, each entry is followed by its recorded pIC50 result.
>  <MOLECULE>
CC(C)C[C@H](NC(=O)[C@H](C)NC(=O)[C@H](CCCCN)NC(=O)[C@H](CCCCN)NC(=O)c1ccc(-c2ccc(Cl)cc2)cc1)C(=O)N[C@@H](C)B(O)O [Compound 155] ({Benzoyl(4-(4-Cl-Ph))}-KKAL-boroAla)

>  <VALUE KIND>
pIC50

>  <READOUT NUMBER>
7.41

$$$$
>  <MOLECULE>
CCCCc1ccc(-c2ccc(C(=O)NCCC(=O)N[C@@H](CCCCN)C(=O)N[C@@H](CCCCN)C(=O)N[C@@H](C)C(=O)N[C@@H](CCCCN)C(=O)N[C@@H](C)B3OC4C[C@@H]5C[C@@H](C5(C)C)[C@]4(C)O3)cc2)cc1 (stereo partly shown) [Compound 207] ({Biphenylcarbonyl(4'-Bu)-βAla}-KKAK-X1)

>  <VALUE KIND>
pIC50

>  <READOUT NUMBER>
7.06

$$$$

State recorded pIC50 for all listed molecules.
1. CCCCc1ccc(-c2ccc(C(=O)N[C@@H](CCN)C(=O)N[C@@H](Cc3ccc(O)c(O)c3)C(=O)N[C@@H](C)C(=O)N[C@@H](CCCCN)C(=O)N[C@@H](C)B3O[C@@H]4C[C@@H]5C[C@@H](C5(C)C)[C@]4(C)O3)cc2)cc1 [Compound 188] ({Biphenylcarbonyl(4'-Bu)}-[Dab][Dopa]AK-{boroAla((+)-pinanediol)})
2. CC(C)C[C@H](NC(=O)[C@H](C)NC(=O)[C@H](CN)NC(=O)[C@H](CN)NC(=O)c1ccc(-c2ccc(Cl)cc2)cc1)C(=O)N[C@@H](C)B(O)O [Compound 176] ({Benzoyl(4-(4-Cl-Ph))}-[Dap][Dap]AL-boroAla)

Result:
1. 6.92
2. 7.25
